Attribution: PubChem BioAssay (NCATS)

- TEST DESCRIPTION: qHTS assay to identify small molecule inhibitors of chordoma cells - UCH-1 (AID 1259355); note: nearly all actives have a fitted effect of over 55% in size
- ASSAY CONDITIONS: UCH-1 chordoma viability, CellTiter-Glo, 48 h, combination, with auranofin plus four topoisomerase inhibitors; series mostly up to 46.1 µM
Records with an inconclusive call do not appear. Activity calls are given as the source filed them. Calls come from the whole dose curve; as a rule, active = well fitted cell-killing curve with a large enough effect; inconclusive = small, poorly fitted or top-dose-only effect, or effect the other way; inactive = no such curve, though single readings can be large or run the other way.
OBSERVED PROPERTY: activity, negative = inhibition

1. CC1(C)Oc2ccc(C#N)cc2[C@@H](N2CCCC2=O)[C@@H]1O :: inactive
2. CSc1ccc2c(c1)C(N1CCN(C)CC1)Cc1ccccc1S2 (stereo not drawn) :: inactive
3. O=c1cc[nH]c(=S)[nH]1 :: inactive
4. O=c1cc(CO)occ1O :: inactive
5. CCCCC(CC)COC(=O)c1ccccc1O (stereo not drawn) :: inactive

# compound "O=C1NC(=O)[C@@]2(CCOc3ccc(F)cc32)N1" ; its activity, negative = inhibition = inactive
